system: ovine adipocytes; test: Lipolytic activity on isolated ovine adipocytes (FFA production), in relation to Isoprenaline; assay type: cell-based, sheep; conditions: Ovis aries, Adipocyte, 1.5 h, 90 minutes at 37° C., pEC50 = negative logarithm of concentration at 50% of maximum effect
propertyName: pEC50
Answers are plain numbers, as −log10 of the molar value.

Tell us which pEC50 value is on record for CC(C)(Cc1ccc(O)cc1)NCC(O)c1cc(O)cc(O)c1 (stereo not shown)
6.30

// provenance: patent US5266589A
